Tested on: Aedes albopictus
METHOD_SUMMARY: Mosquito landing rate on replica skin substrate applied with repellent
Assay type: in vivo
CONDITION_PARAMETERS: coverage 0.5 mg/cm^2 on polyurethane replica skin substrate; stay of at least 1 second counts as landed; lower = better repellent effect
This section presents compounds with their documented Landing rate (at 0.5 mg/cm^2) values.
MEASUREMENT_KIND: Landing rate (at 0.5 mg/cm^2) (%)

CCCCC(CC)C(=O)OCC(C)(C)COC(=O)C(CC)CCCC (stereo not shown) [Ester oil b3, Neopentyl glycol di-2-ethylhexanoate] :: 12
CC(C)CCCCCCCCCCOC(=O)CCCCCC(C)C [Ester oil b2, Isotridecyl isononanoate] :: 15
CCCCCCCCCC(=O)OCC(C)(C)COC(=O)CCCCCCCCC [Ester oil b6, Neopentyl glycol dicaprate] :: 20
CCCCCCCCCCCCCCCC(=O)OC(C)C [Ester oil b4, Isopropyl palmitate] :: 19
CCCCCCCCCCCCCC(=O)OC(C)C [Ester oil b5, Isopropyl myristate] :: 11
CC(C)CCCCCCOC(=O)CCCCCC(C)C [Ester oil b1, Isononyl isononanoate] :: 22
CC(C)=CCC/C(C)=C/CC/C(C)=C/CC/C=C(\C)CC/C=C(\C)CCC=C(C)C [Hydrocarbon oil d3, Squalene] :: 21

---

METHOD_SUMMARY: Measurement of surface tension (Wilhelmy method, Tensiometer K100)
Assay type: physicochemical
CONDITION_PARAMETERS: static surface tension, platinum plate
Listed here are compounds together with their documented Surface tension (at 25° C.).
MEASUREMENT_KIND: Surface tension (at 25° C.) (mN/m)

CC(C)=CCC/C(C)=C/CC/C(C)=C/CC/C=C(\C)CC/C=C(\C)CCC=C(C)C [Hydrocarbon oil d3, Squalene] :: 30
CC(C)CCCCCCOC(=O)CCCCCC(C)C [Ester oil b1, Isononyl isononanoate] :: 25
CC(C)CCCCCCCCCCOC(=O)CCCCCC(C)C [Ester oil b2, Isotridecyl isononanoate] :: 28
OCCCO [Polyhydric alcohol fx1, 1,3-Propanediol, reference compound] :: 48
CCCCC(CC)C(=O)OCC(C)(C)COC(=O)C(CC)CCCC (stereo not shown) [Ester oil b3, Neopentyl glycol di-2-ethylhexanoate] :: 28
OCC(O)CO [Polyhydric alcohol fx2, Glycerin, reference compound] :: 65
CCCCCCCCCCCCCC(=O)OC(C)C [Ester oil b5, Isopropyl myristate] :: 28
CCCCCCCCCC(=O)OCC(C)(C)COC(=O)CCCCCCCCC [Ester oil b6, Neopentyl glycol dicaprate] :: 28
CCCCCCCCCCC(CO)CCCCCCCC (stereo not shown) [Higher alcohol e1, 2-Octyl dodecanol] :: 29
CCCCCCCCCCCCCCCC(=O)OC(C)C [Ester oil b4, Isopropyl palmitate] :: 27

---

METHOD_SUMMARY: Measurement of viscosity (B-type rotational viscometer)
Format: physicochemical
CONDITION_PARAMETERS: rotor M2 (12 or 6 rpm) or L adapter (30 rpm) as listed per sample
Property: Viscosity (at 23° C.); scope: individual compounds
MEASUREMENT_KIND: Viscosity (at 23° C.)

CCCCCCCCCCCCCC(=O)OC(C)C [Ester oil b5, Isopropyl myristate] :: 5 mPa · s
CCCCCCCCCCC(CO)CCCCCCCC (centres unmarked) [Higher alcohol e1, 2-Octyl dodecanol] :: 74 mPa · s
CC(C)=CCC/C(C)=C/CC/C(C)=C/CC/C=C(\C)CC/C=C(\C)CCC=C(C)C [Hydrocarbon oil d3, Squalene] :: 42 mPa · s
CCCCCCCCCC(=O)OCC(C)(C)COC(=O)CCCCCCCCC [Ester oil b6, Neopentyl glycol dicaprate] :: 15 mPa · s
OCCCO [Polyhydric alcohol fx1, 1,3-Propanediol, reference compound] :: 53 mPa · s
CCCCCCCCCCCCCCCC(=O)OC(C)C [Ester oil b4, Isopropyl palmitate] :: 7 mPa · s
CC(C)CCCCCCCCCCOC(=O)CCCCCC(C)C [Ester oil b2, Isotridecyl isononanoate] :: 11 mPa · s
CC(C)CCCCCCOC(=O)CCCCCC(C)C [Ester oil b1, Isononyl isononanoate] :: 6 mPa · s
